Entry source: patent US20100028889A1

Listed here are compounds together with their documented pEC50.
System: NCI-H69
Test: sensitivity of SCLC cell line, procedure of Oltersdorf
Format: cell-based
Details: Homo sapiens, read-out: sensitivity class by EC50
pEC50: −log10 of the molar value.

GET /values?item= CC1(C)CCC(c2ccc(Cl)cc2)=C(CN2CCN(c3ccc(C(=O)NS(=O)(=O)c4ccc(N[C@H](CCN5CCOCC5)CSc5ccccc5)c(S(=O)(=O)C(F)(F)F)c4)cc3)CC2)C1 [ABT-263] &system= NCI-H69 returns pEC50: > 5.30

GET /values?item= CN(C)CC[C@H](CSc1ccccc1)Nc1ccc(S(=O)(=O)NC(=O)c2ccc(N3CCN(Cc4ccccc4-c4ccc(Cl)cc4)CC3)cc2)cc1[N+](=O)[O-] [ABT-737] &system= NCI-H69 returns pEC50: > 5.30
